- Tested on: Escherichia coli TOP10
- PROCEDURE TEXT: shrunken log2 fold change of peptide-encoding DNA abundance (4.5 h post-induction vs induction); higher = less antimicrobial activity (less host growth inhibition)
- DETAILS: time post-induction: 4.5 h; library: site-saturation at positions 5, 18, 19, 20
Decide using shrunken log2 fold change: a value greater than or equal to -0.2 is Condition met, a smaller one is Condition not met.

Below are worked cases with known answers.
>  <ENTRY SEQUENCE>
RRIRGRPPRLPRPRPRPMTKPRP

>  <EXPERIMENTAL SYSTEM>
Escherichia coli TOP10

>  <QUALITATIVE LABEL>
Condition met

$$$$
>  <ENTRY SEQUENCE>
RRIRNRPPRLPRPRPRPTITPRP

>  <EXPERIMENTAL SYSTEM>
Escherichia coli TOP10

>  <QUALITATIVE LABEL>
Condition not met

$$$$

Data request: Has "RRIRGRPPRLPRPRPRPHYAPRP" a recorded shrunken log2 fold change greater than or equal to -0.2?
Data returned: Condition met

Data request: Has "RRIRNRPPRLPRPRPRPSVYPRP" a recorded shrunken log2 fold change greater than or equal to -0.2?
Data returned: Condition met

Data request: Has "RRIRGRPPRLPRPRPRPKPLPRP" a recorded shrunken log2 fold change greater than or equal to -0.2?
Data returned: Condition met

Data request: Has "RRIRLRPPRLPRPRPRPNKLPRP" a recorded shrunken log2 fold change greater than or equal to -0.2?
Data returned: Condition not met

Data request: Has "RRIRERPPRLPRPRPRPWNAPRP" a recorded shrunken log2 fold change greater than or equal to -0.2?
Data returned: Condition met

Data request: Has "RRIRERPPRLPRPRPRPTKFPRP" a recorded shrunken log2 fold change greater than or equal to -0.2?
Data returned: Condition not met

Data request: Has "RRIRQRPPRLPRPRPRPTMSPRP" a recorded shrunken log2 fold change greater than or equal to -0.2?
Data returned: Condition met

Data request: Has "RRIRFRPPRLPRPRPRPICPPRP" a recorded shrunken log2 fold change greater than or equal to -0.2?
Data returned: Condition not met

Data request: Has "RRIRVRPPRLPRPRPRPFKAPRP" a recorded shrunken log2 fold change greater than or equal to -0.2?
Data returned: Condition not met

Data request: Has "RRIRIRPPRLPRPRPRPNKLPRP" a recorded shrunken log2 fold change greater than or equal to -0.2?
Data returned: Condition not met

Data request: Has "RRIRKRPPRLPRPRPRPGHNPRP" a recorded shrunken log2 fold change greater than or equal to -0.2?
Data returned: Condition met

Data request: Has "RRIRNRPPRLPRPRPRPKWWPRP" a recorded shrunken log2 fold change greater than or equal to -0.2?
Data returned: Condition met

* * *

Reported shrunken log2 fold change is given for each of the following sequences.
- Test system: Escherichia coli TOP10
- PROCEDURE TEXT: shrunken log2 fold change of peptide-encoding DNA abundance (4.5 h post-induction vs induction); higher = less antimicrobial activity (less host growth inhibition)
- DETAILS: time post-induction: 4.5 h; library: site-saturation at positions 5, 18, 19, 20
Enter the number alone.

Quick note, shrunken log2 fold change for "RRIRWRPPRLPRPRPRPWWLPRP" landed at 0.162

* * *

- System: Escherichia coli TOP10
- PROCEDURE TEXT: shrunken log2 fold change of peptide-encoding DNA abundance (4.5 h post-induction vs induction); higher = less antimicrobial activity (less host growth inhibition)
- DETAILS: time post-induction: 4.5 h; library: site-saturation at positions 5, 18, 19, 20
READOUT TYPE: shrunken log2 fold change
Enter the number alone.

>  <ENTRY SEQUENCE>
RRIRVRPPRLPRPRPRPQMVPRP

>  <MEAS VALUE>
0.0123

$$$$
>  <ENTRY SEQUENCE>
RRIRQRPPRLPRPRPRPTTLPRP

>  <MEAS VALUE>
-0.196

$$$$
>  <ENTRY SEQUENCE>
RRIRERPPRLPRPRPRPSPAPRP

>  <MEAS VALUE>
-0.0943

$$$$

# shrunken log2 fold change measured on Escherichia coli TOP10 for item "RRIRLRPPRLPRPRPRPNDPPRP" = -0.213

# shrunken log2 fold change measured on Escherichia coli TOP10 for item "RRIRSRPPRLPRPRPRPLNWPRP" = -0.0815

# shrunken log2 fold change measured on Escherichia coli TOP10 for item "RRIRCRPPRLPRPRPRPFWWPRP" = 0.925

# shrunken log2 fold change measured on Escherichia coli TOP10 for item "RRIRNRPPRLPRPRPRPNGWPRP" = -0.0113

# shrunken log2 fold change measured on Escherichia coli TOP10 for item "RRIRARPPRLPRPRPRPCCTPRP" = 0.485

# shrunken log2 fold change measured on Escherichia coli TOP10 for item "RRIRTRPPRLPRPRPRPYMTPRP" = -0.375

# shrunken log2 fold change measured on Escherichia coli TOP10 for item "RRIRDRPPRLPRPRPRPGCPPRP" = 0.0445

# shrunken log2 fold change measured on Escherichia coli TOP10 for item "RRIRWRPPRLPRPRPRPEYYPRP" = -0.13

* * *

- System: Escherichia coli TOP10
- PROCEDURE TEXT: shrunken log2 fold change of peptide-encoding DNA abundance (4.5 h post-induction vs induction); higher = less antimicrobial activity (less host growth inhibition)
- DETAILS: time post-induction: 4.5 h; library: site-saturation at positions 5, 18, 19, 20
Reported shrunken log2 fold change is given for each of the following sequences.
Enter the number alone.

A selection of reference data follows.
>  <ENTRY SEQUENCE>
RRIRPRPPRLPRPRPRPNGLPRP

>  <shrunken log2 fold change>
0.015

$$$$
>  <ENTRY SEQUENCE>
RRIRFRPPRLPRPRPRPEDVPRP

>  <shrunken log2 fold change>
-0.0294

$$$$
>  <ENTRY SEQUENCE>
RRIRYRPPRLPRPRPRPTIPPRP

>  <shrunken log2 fold change>
-0.572

$$$$
>  <ENTRY SEQUENCE>
RRIRIRPPRLPRPRPRPMPWPRP

>  <shrunken log2 fold change>
0.306

$$$$
>  <ENTRY SEQUENCE>
RRIRRRPPRLPRPRPRPIFHPRP

>  <shrunken log2 fold change>
0.129

$$$$
>  <ENTRY SEQUENCE>
RRIRIRPPRLPRPRPRPGPKPRP

>  <shrunken log2 fold change>
0.00436

$$$$
>  <ENTRY SEQUENCE>
RRIRPRPPRLPRPRPRPTIVPRP

>  <shrunken log2 fold change>
0.121

$$$$
>  <ENTRY SEQUENCE>
RRIRDRPPRLPRPRPRPNFCPRP

>  <shrunken log2 fold change>
-0.00997

$$$$

# shrunken log2 fold change measured on Escherichia coli TOP10 for item "RRIRYRPPRLPRPRPRPVWCPRP" = -0.0399

# shrunken log2 fold change measured on Escherichia coli TOP10 for item "RRIRCRPPRLPRPRPRPRKVPRP" = 0.196

# shrunken log2 fold change measured on Escherichia coli TOP10 for item "RRIRYRPPRLPRPRPRPQFTPRP" = -0.308

# shrunken log2 fold change measured on Escherichia coli TOP10 for item "RRIRIRPPRLPRPRPRPLNMPRP" = -0.528

* * *

- Tested on: Escherichia coli TOP10;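 further: peptides expressed intracellularly from a pBAD plasmid library in pooled LB shake-flask culture, induced with 0.3% L-arabinose, DNA abundance read by NGS, three biological replicates, DESeq2 with apeglm shrinkage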
- PROCEDURE TEXT: shrunken log2 fold change of peptide-encoding DNA abundance (4.5 h post-induction vs induction); higher = less antimicrobial activity (less host growth inhibition)
- DETAILS: time post-induction: 4.5 h; library: site-saturation at positions 5, 18, 19, 20
Category | rule: reported shrunken log2 fold change within range, see low interval: < -0.03; middle interval: ≥ -0.03 and < 0.5; high interval: ≥ 0.5

>  <ENTRY SEQUENCE>
RRIRKRPPRLPRPRPRPVAKPRP

>  <QUALITATIVE LABEL>
high interval

$$$$
>  <ENTRY SEQUENCE>
RRIRNRPPRLPRPRPRPTRDPRP

>  <QUALITATIVE LABEL>
middle interval

$$$$
>  <ENTRY SEQUENCE>
RRIRFRPPRLPRPRPRPMQEPRP

>  <QUALITATIVE LABEL>
middle interval

$$$$
>  <ENTRY SEQUENCE>
RRIRQRPPRLPRPRPRPPNVPRP

>  <QUALITATIVE LABEL>
low interval

$$$$

Data request: Classify this sequence: "RRIRMRPPRLPRPRPRPKKRPRP"
Data returned: high interval

Data request: Classify this sequence: "RRIRERPPRLPRPRPRPECPPRP"
Data returned: middle interval

Data request: Classify this sequence: "RRIRMRPPRLPRPRPRPMWSPRP"
Data returned: middle interval

Data request: Classify this sequence: "RRIRARPPRLPRPRPRPEFSPRP"
Data returned: high interval

Data request: Classify this sequence: "RRIRPRPPRLPRPRPRPMHDPRP"
Data returned: low interval

Data request: Classify this sequence: "RRIRNRPPRLPRPRPRPHRNPRP"
Data returned: low interval
